Data provenance is paper PMC8839746.

Test: Kinetic solubility in pH 7.4 phosphate buffer by quantitative NMR
Format: physicochemical
Conditions: phosphate-buffered saline with 5% DMSO, aqueous with cosolvent or surfactant or cyclodextrin, kinetic from dmso stock, NMR method
measurement_type: solubility kinetic at 20 h

molecule="NC(=O)N1CCN(c2nc(-c3ccccc3)cs2)CC1 [Compound 1]" assay_result="291 µM"

----------
# Ligand Efficiency per record follows
Molecular target: HSC70-NBD (Homo sapiens)
Construct: made in house
Sequence (P11142 2-386 limits assumed): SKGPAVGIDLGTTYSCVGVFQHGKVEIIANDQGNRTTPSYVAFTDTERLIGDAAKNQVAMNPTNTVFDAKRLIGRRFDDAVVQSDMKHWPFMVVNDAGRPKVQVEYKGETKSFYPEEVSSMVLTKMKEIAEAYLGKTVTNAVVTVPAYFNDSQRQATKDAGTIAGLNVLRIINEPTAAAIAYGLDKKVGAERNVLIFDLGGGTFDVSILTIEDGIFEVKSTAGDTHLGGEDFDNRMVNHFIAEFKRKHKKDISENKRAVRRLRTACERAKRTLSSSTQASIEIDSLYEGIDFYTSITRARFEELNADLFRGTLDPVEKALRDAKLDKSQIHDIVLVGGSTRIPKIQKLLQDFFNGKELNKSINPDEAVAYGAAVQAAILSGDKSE
Experiment: SPR binding to wild-type HSC70-NBD
Conditions: vHTS hits, HSC70-NBD
measurement_type: Ligand Efficiency

compound="CC(C)(O)C#Cc1cccc(C(=O)NCc2ccc(-n3cncn3)cc2)c1 [Compound 5]" measurement_type="Ligand Efficiency" assay_result="0.19 kcal/mol per heavy atom"
compound="c1ccc(-c2ccc(Cn3nnnc3N3CCCC(c4ncc[nH]4)C3)cc2)cc1 (centres unmarked) [Compound 6]" measurement_type="Ligand Efficiency" assay_result="0.24 kcal/mol per heavy atom"
compound="CC(C)c1csc(CCNC(=O)c2cccc(-c3cncc(O)n3)c2)n1 [Compound 4]" measurement_type="Ligand Efficiency" assay_result="0.18 kcal/mol per heavy atom"
compound="CNc1nc(C)cc(-c2cccc(C(=O)NCCc3ccc(C)o3)c2)n1 [Compound 7]" measurement_type="Ligand Efficiency" assay_result="0.21 kcal/mol per heavy atom"
compound="COc1cccc(-c2cc(CNC(=O)c3c(C)oc4c3C(=O)CCC4)on2)c1 [Compound 8]" measurement_type="Ligand Efficiency" assay_result="0.2 kcal/mol per heavy atom"
